Just for reference, patent US9340577B2 is where these values come from.

# experimental-target: A31 (A*3101) (Homo sapiens, UniProt P04439, A270S/D185E/E176V/E277Q/F33T/G231S/G80R/H175R/I121M/I218V/I322F/K168Q/L300P/L318F/M331R/P217A/Q94H/R138Q/T323A/T345S/T97I/V358M)
# assay-method-text: biochemical
# Assay type: binding
No end group written: not given here.
readout-label: pIC50
Scale for pIC50: -log10 of concentration given in mol/L; no unit attached.

Sample answers from the record:
>>> quantitative_result("GQGVSIEWRK [Peptide 9017.0219]")
5.10
>>> quantitative_result("AIRKAILGHR [Peptide 9017.0223]")
7.60
>>> quantitative_result("MLIQPPKLR [Peptide 88.0340]")
6.16
>>> quantitative_result("HLVPWDQLFR [Peptide 9012.0236]")
6.51
>>> quantitative_result("KISEYRHYQY [Peptide 1571.14]")
5.14

get_value(item= WTLELLEELK [Peptide 9017.0238] , readout=pIC50) returns 4.76

Entry QVVPAYNISK [Peptide 1589.06] ; pIC50 = 5.18

Entry AVNKMFCQLAK [Peptide 1556.46] , pIC50 reported as 6.55

Lab note: measured pIC50 of TVWNPPTTAK [Peptide 1556.03] was 5.04

AVMCRHYKR [Peptide 1587.53] yielded pIC50 of 7.85

For STWHWTSDDK [Peptide 1589.43] the sequence record lists pIC50 as 5.28

Item: TFPNPFPFDK [Peptide 88.0162] | pIC50: 5.65

---

Each entry below carries its reported binding to HLA-A2.1 (column 3; no allele head shown for these rows).
# experimental-target: HLA-A*0201 (HLA-A2.1) (Homo sapiens, UniProt P04439, D140Y/D185E/D98H/E176V/E277Q/G131W/G231S/I119V/I121R/I166T/I218V/L300P/L318F/N151K/N90K/P208A/P217A/Q86G/Q94H/R138H/R169H/T345S)
# assay-method-text: biochemical
# Format: binding

Here are 10 sequences together with their reported answers.
>>> result("LLIIVLAIIA")
"<0.0002"
>>> result("IMPKAGLLII")
0.0015
>>> result("AALREEEEGV")
0
>>> result("LQLVFGIDV")
0.0004
>>> result("KTGFLIIVLV")
0.0012
>>> result("LLGDNQIMV")
0.043
>>> result("LIIVLVMIA")
0
>>> result("KMVELVHFL")
0.13
>>> result("SAFPTTINFT")
0
>>> result("VMIAMEGGHA")
0.0023

Memo: ALEAQQEALGL , reported binding to HLA-A2.1 (column 3; no allele head shown for these rows): 0.0001

The sequence listed as PIGHLYIFA has a reported binding to HLA-A2.1 (column 3; no allele head shown for these rows) of 0

Query GIDVKEADPT yields binding to HLA-A2.1 (column 3; no allele head shown for these rows) of 0

Reported binding to HLA-A2.1 (column 3; no allele head shown for these rows) of IVLVMIAM : 0.0001

Notebook: GIELMEVDPI , binding to HLA-A2.1 (column 3; no allele head shown for these rows) read as <0.0002

Briefly, binding to HLA-A2.1 (column 3; no allele head shown for these rows) measured for SAYGEPRKLL : 0

Item: ILESLFRA | binding to HLA-A2.1 (column 3; no allele head shown for these rows): 0.0017

---

# experimental-target: A*3002 (Homo sapiens, UniProt P04439, D101N/D140H/D185E/E176R/F33S/G80R/H175R/K168Q/Q94H/R138E/R41S/V100E)
# Sequence (P04439 whole entry, looked up, the tested form may be a part, stated change not applied): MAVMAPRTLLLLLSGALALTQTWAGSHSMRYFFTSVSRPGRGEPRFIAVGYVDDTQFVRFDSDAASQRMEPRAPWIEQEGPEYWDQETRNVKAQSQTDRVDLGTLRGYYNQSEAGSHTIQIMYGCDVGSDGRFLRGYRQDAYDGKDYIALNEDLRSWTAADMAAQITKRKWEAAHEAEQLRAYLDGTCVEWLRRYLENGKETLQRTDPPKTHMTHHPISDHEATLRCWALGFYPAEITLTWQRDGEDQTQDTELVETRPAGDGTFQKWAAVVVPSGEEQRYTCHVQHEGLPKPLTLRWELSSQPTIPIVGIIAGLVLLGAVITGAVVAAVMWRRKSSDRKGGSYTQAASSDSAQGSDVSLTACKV
# assay-method-text: biochemical
# Format: binding
No end group written: not given here.
readout-label: log10(IC50) (log10 of the value in nM)
Values are log10 of IC50 in nM.

Look over these answered cases.
>>> quantitative_result("HIGPGRAFY [Peptide 1595.03]")
1.04
>>> quantitative_result("HTARELHPEY [Peptide 9018.0004]")
0.96
>>> quantitative_result("YTDGPGVRY [Peptide 9018.0003]")
1.65
>>> quantitative_result("LADQLIHMYY [Peptide 9015.0187]")
2.89
>>> quantitative_result("NYLVKHHMY [Peptide 9018.0037]")
1.08
>>> quantitative_result("GLADQLIHLY [Peptide 9015.0185]")
0.96
>>> quantitative_result("RYSTQVDPGY [Peptide 9018.0039]")
1.60
>>> quantitative_result("VMDDSEIAY [Peptide 1580.07]")
3.41
>>> quantitative_result("LYDQLIHMHY [Peptide 9018.0034]")
1.74
>>> quantitative_result("ETKLGKAGY [Peptide 9015.0023]")
3.59

Noted for VSIEWRKRRY [Peptide 9015.0183] : its log10(IC50) reads 2.36

log10(IC50) in this record for HMDREKHPEY [Peptide 9018.0007] : 2.81

Value of log10(IC50) reported for the sequence FSITNWLWY [Peptide 9015.0008] is 2.94

Record WFDITNWLWY [Peptide 9015.0161] , field log10(IC50): 3.22

---

# experimental-target: DRB1*1501 (Homo sapiens, UniProt P01903+P01911)
# assay-method-text: biochemical
# Type: binding
readout-label: pIC50
In textbook form, pIC50 equals minus log to base ten of the concentration in mol/L.

>>> quantitative_result("CC[C@H](C)[C@H](NC(=O)[C@@H](NC(=O)[C@H](CCSC)NC(=O)[C@H](Cc1ccc(O)cc1)NC(=O)CNC(=O)[C@@H](NC(=O)[C@H](CO)NC(=O)[C@@H](NC(=O)[C@H](CCC(N)=O)NC(=O)[C@@H](NC(=O)[C@H](CO)NC(=O)[C@H](CC(N)=O)NC(=O)[C@@H]1CCCN1C(=O)[C@@H](NC(=O)[C@@H](N)[C@@H](C)O)[C@@H](C)CC)C(C)C)[C@@H](C)CC)C(C)C)[C@@H](C)O)C(=O)O [Peptide 1601.42]")
8.00
>>> quantitative_result("CC[C@H](C)[C@H](NC(=O)[C@H](C)NC(=O)[C@H](CCCCN)NC(=O)[C@@H](N)Cc1c[nH]cn1)C(=O)N[C@@H](CCC(=O)O)C(=O)N[C@@H](CC(C)C)C(=O)N[C@@H](CCC(N)=O)C(=O)N[C@@H](CCSC)C(=O)N[C@@H](C)C(=O)N[C@@H](CC(C)C)C(=O)N[C@@H](CCC(N)=O)C(=O)NCC(=O)N[C@@H](CC(C)C)C(=O)N[C@@H](C)C(=O)N[C@@H](CCC(N)=O)C(=O)O [Peptide 89.0160]")
5.89

As a next step, examine the molecule that follows.
Sure, the documented pIC50 for CC[C@H](C)[C@H](N)C(=O)N[C@@H](CO)C(=O)N[C@H](C(=O)N[C@H](C(=O)N[C@@H](CC(N)=O)C(=O)N[C@@H](CCC(=O)O)C(=O)N[C@@H](CC(=O)O)C(=O)NCC(=O)N[C@@H](CC(N)=O)C(=O)N[C@@H](CCC(=O)O)C(=O)N[C@H](C(=O)N[C@@H](Cc1ccccc1)C(=O)N[C@@H](CC(N)=O)C(=O)N[C@H](C(=O)N[C@@H](CO)C(=O)O)[C@@H](C)O)[C@@H](C)CC)[C@@H](C)CC)[C@@H](C)CC [Peptide 68.0166] is 5.52

---

# experimental-target: DRB1*1501 (Homo sapiens, UniProt P01903+P01911)
# assay-method-text: biochemical
# Type: binding
readout-label: IC50 (µM)
API: value field is a number in µM; no unit string.

>>> quantitative_result("CC(C)[C@H](NC(=O)[C@H](CO)NC(=O)[C@@H](NC(=O)[C@@H](N)[C@@H](C)O)C(C)C)C(=O)NCC(=O)N[C@H](C(=O)N[C@@H](C)C(=O)N[C@@H](CCCCN)C(=O)N[C@H](C(=O)N[C@@H](Cc1ccc(O)cc1)C(=O)NCC(=O)N[C@@H](CCC(N)=O)C(=O)N[C@H](C(=O)N[C@@H](CO)C(=O)N[C@@H](C)C(=O)O)[C@@H](C)O)[C@@H](C)O)[C@@H](C)O [Peptide 89.0163]")
8.71

Here is the next item to consider.
Documented IC50 of CC[C@H](C)[C@H](NC(=O)[C@H](CCCCN)NC(=O)[C@H](CC(N)=O)NC(=O)[C@@H](NC(=O)[C@@H](NC(=O)[C@H](CC(C)C)NC(=O)[C@@H](NC(=O)[C@H](CO)NC(=O)[C@H](CC(C)C)NC(=O)[C@H](C)N)[C@@H](C)O)C(C)C)C(C)C)C(=O)N[C@@H](CCCNC(=N)N)C(=O)NCC(=O)N[C@H](C(=O)N[C@@H](Cc1ccccc1)C(=O)N[C@@H](CCCCN)C(=O)O)[C@@H](C)O [Peptide F196.09] : 0.16
